target: DNA topoisomerase 2-alpha (Homo sapiens); assay: Inhibition of strand rejoining activity of human DNA topoisomerase 2 assessed as protein-DNA complex formation at 10 uM by cell-based assay; design: scale not given: the % may be the effect or the level left
experimental.readout: Activity (%)
Kindly provide the numeric value in % only, without the unit symbol.

[ask] # input compound: `COc1cc([C@@H]2c3cc4c(cc3[C@@H](Nc3cccc(Br)c3)[C@H]3COC(=O)[C@H]23)OCO4)cc(OC)c1O` ; wanted: its Activity
[reply] 62

[ask] # input compound: `COc1cc([C@@H]2c3cc4c(cc3[C@@H](O)[C@H]3COC(=O)[C@H]23)OCO4)cc(OC)c1O` ; wanted: its Activity
[reply] 0

[ask] # input compound: `COc1cc([C@@H]2c3cc4c(cc3[C@@H](Nc3cc(C(F)(F)F)cc(C(F)(F)F)c3)[C@H]3COC(=O)[C@H]23)OCO4)cc(OC)c1O` ; wanted: its Activity
[reply] 21

[ask] # input compound: `COc1cc([C@@H]2c3cc4c(cc3[C@@H](Nc3cccc([N+](=O)[O-])c3)[C@H]3COC(=O)[C@H]23)OCO4)cc(OC)c1O` ; wanted: its Activity
[reply] 230

###

target: DNA topoisomerase 2-alpha (Homo sapiens) (UniProt P11388); assay: Inhibition of strand rejoining activity of human DNA topoisomerase 2 assessed as protein-DNA complex formation at 20 uM by cell-based assay; parameters: scale not given: the % may be the effect or the level left
Sequence (P11388 whole entry): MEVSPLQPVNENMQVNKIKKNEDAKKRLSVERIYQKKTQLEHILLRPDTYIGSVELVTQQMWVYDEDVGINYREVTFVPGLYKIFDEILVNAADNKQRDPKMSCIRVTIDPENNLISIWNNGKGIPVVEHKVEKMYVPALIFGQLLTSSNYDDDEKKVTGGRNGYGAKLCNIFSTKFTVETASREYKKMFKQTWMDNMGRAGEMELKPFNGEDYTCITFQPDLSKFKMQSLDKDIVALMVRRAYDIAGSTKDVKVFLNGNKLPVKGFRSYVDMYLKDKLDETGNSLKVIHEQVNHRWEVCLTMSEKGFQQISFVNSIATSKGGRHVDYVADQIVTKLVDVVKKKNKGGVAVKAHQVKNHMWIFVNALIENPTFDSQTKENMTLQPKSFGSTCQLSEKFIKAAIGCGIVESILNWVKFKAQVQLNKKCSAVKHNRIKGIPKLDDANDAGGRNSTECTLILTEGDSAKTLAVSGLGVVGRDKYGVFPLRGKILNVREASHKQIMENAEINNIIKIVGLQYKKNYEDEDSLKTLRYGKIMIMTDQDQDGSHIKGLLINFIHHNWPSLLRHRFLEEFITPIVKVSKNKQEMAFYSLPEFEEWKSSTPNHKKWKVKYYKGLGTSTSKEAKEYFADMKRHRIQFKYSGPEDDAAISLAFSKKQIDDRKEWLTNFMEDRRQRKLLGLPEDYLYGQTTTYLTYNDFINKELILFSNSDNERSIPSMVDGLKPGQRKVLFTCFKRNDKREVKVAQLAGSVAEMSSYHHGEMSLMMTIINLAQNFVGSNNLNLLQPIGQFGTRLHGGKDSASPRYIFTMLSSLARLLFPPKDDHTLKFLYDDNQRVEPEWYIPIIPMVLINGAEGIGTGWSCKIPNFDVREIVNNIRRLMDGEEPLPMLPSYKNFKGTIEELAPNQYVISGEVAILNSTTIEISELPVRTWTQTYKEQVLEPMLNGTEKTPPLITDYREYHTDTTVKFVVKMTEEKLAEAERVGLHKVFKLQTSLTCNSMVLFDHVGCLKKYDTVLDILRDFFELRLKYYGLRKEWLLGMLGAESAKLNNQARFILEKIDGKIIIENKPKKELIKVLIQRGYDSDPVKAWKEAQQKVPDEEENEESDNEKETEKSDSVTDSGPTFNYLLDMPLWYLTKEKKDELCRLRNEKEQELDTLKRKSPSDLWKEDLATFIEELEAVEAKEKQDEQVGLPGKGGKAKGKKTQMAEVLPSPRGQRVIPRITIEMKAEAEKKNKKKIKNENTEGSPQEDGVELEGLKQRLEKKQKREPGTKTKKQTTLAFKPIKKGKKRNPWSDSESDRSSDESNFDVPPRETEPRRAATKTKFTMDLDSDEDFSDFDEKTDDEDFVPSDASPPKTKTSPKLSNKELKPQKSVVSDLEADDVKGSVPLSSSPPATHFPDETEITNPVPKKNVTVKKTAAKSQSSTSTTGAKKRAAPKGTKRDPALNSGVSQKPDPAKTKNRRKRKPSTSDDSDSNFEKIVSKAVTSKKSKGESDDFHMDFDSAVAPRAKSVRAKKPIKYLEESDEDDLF
experimental.readout: Activity

See these solved cases before continuing.
smiles	experimental.target	Activity
COC1=CC([C@@H]2c3cc4c(cc3[C@H](O)[C@H]3COC(=O)[C@@H]32)OCO4)=CC(=O)C1=O	DNA topoisomerase 2-alpha (Homo sapiens) (UniProt P11388)	4%
COC1=CC([C@@H]2c3cc4c(cc3[C@@H](Nc3cc(F)cc(F)c3)[C@H]3COC(=O)[C@@H]32)OCO4)=CC(=O)C1=O	DNA topoisomerase 2-alpha (Homo sapiens) (UniProt P11388)	57%
COC1=CC([C@@H]2c3cc4c(cc3[C@@H](Nc3cccc(F)c3)[C@H]3COC(=O)[C@@H]32)OCO4)=CC(=O)C1=O	DNA topoisomerase 2-alpha (Homo sapiens) (UniProt P11388)	37%

[ask] # input compound: `COc1cc([C@@H]2c3cc4c(cc3[C@@H](Nc3ccccc3)[C@H]3COC(=O)[C@H]23)OCO4)cc(O)c1O` ; wanted: its Activity
[reply] 128%

[ask] # input compound: `COc1cc([C@@H]2c3cc4c(cc3[C@@H](Nc3ccc(CC#N)cc3)[C@H]3COC(=O)[C@H]23)OCO4)cc(O)c1O` ; wanted: its Activity
[reply] 109%

[ask] # input compound: `COC1=CC([C@@H]2c3cc4c(cc3[C@@H](Nc3cncc5ccccc35)[C@H]3COC(=O)[C@@H]32)OCO4)=CC(=O)C1=O` ; wanted: its Activity
[reply] 95%

[ask] # input compound: `CCOC(=O)c1ccc(N[C@@H]2c3cc4c(cc3[C@@H](C3=CC(=O)C(=O)C(OC)=C3)[C@H]3C(=O)OC[C@@H]32)OCO4)cc1` ; wanted: its Activity
[reply] 110%

###

molecular target: DNA topoisomerase 2-alpha (Homo sapiens); assay: Inhibition of human DNA topoisomerase 2
experimental.readout: ID50 (µM)
Kindly provide the numeric value in µM only, without the unit symbol.

See these solved cases before continuing.
smiles	experimental.target	ID50, µM
COc1cc([C@@H]2c3cc4c(cc3[C@@H](Nc3cc(F)cc(F)c3)[C@H]3COC(=O)[C@H]23)OCO4)cc(OC)c1O	DNA topoisomerase 2-alpha (Homo sapiens)	50
COC1=CC([C@@H]2c3cc4c(cc3[C@@H](Nc3cc(F)cc(F)c3)[C@H]3COC(=O)[C@@H]32)OCO4)=CC(=O)C1=O	DNA topoisomerase 2-alpha (Homo sapiens)	50
COC1=CC([C@@H]2c3cc4c(cc3[C@@H](Nc3ccc(C(F)(F)F)cc3)[C@H]3COC(=O)[C@@H]32)OCO4)=CC(=O)C1=O	DNA topoisomerase 2-alpha (Homo sapiens)	25

Next, consider the following compound.
[ask] # input compound: `COC(=O)c1ccc(N[C@@H]2c3cc4c(cc3[C@@H](c3cc(OC)c(O)c(OC)c3)[C@H]3C(=O)OC[C@@H]32)OCO4)cc1O` ; wanted: its ID50
[reply] 50

###

Reported Activity values follow for various compounds
target: UniProt P11388; assay: Inhibition of strand rejoining activity of human DNA topoisomerase 2 assessed as protein-DNA complex formation at 20 uM by cell-based assay; set-up: scale not given: the % may be the effect or the level left
Kindly provide the numeric value in % only, without the unit symbol.

See these solved cases before continuing.
smiles	Activity (%)
COC1=CC([C@@H]2c3cc4c(cc3C(=O)[C@H]3COC(=O)[C@@H]32)OCO4)=CC(=O)C1=O	56
COC1=CC([C@@H]2c3cc4c(cc3[C@@H](Nc3ccccc3)[C@H]3COC(=O)[C@@H]32)OCO4)=CC(=O)C1=O	32
COC(=O)c1cccc(N[C@@H]2c3cc4c(cc3[C@@H](C3=CC(=O)C(=O)C(OC)=C3)[C@H]3C(=O)OC[C@@H]32)OCO4)c1	67
COC(=O)c1ccc(N[C@@H]2c3cc4c(cc3[C@@H](C3=CC(=O)C(=O)C(OC)=C3)[C@H]3C(=O)OC[C@@H]32)OCO4)cc1O	47
COC1=CC([C@@H]2c3cc4c(cc3[C@@H](Nc3ccc(CC#N)cc3)[C@H]3COC(=O)[C@@H]32)OCO4)=CC(=O)C1=O	41

[ask] Give UniProt P11388 Activity for `COC1=CC([C@@H]2c3cc4c(cc3[C@@H](Nc3ccc(F)cc3)[C@H]3COC(=O)[C@@H]32)OCO4)=CC(=O)C1=O`
[reply] 92

[ask] Give UniProt P11388 Activity for `COC1=CC([C@@H]2c3cc4c(cc3[C@@H](Nc3cccc(Br)c3)[C@H]3COC(=O)[C@@H]32)OCO4)=CC(=O)C1=O`
[reply] 15

###

molecular target: DNA topoisomerase 2-alpha (Homo sapiens); assay: Inhibition of human DNA topoisomerase 2
experimental.readout: ID50 (µM)
Kindly provide the numeric value in µM only, without the unit symbol.

[ask] # input compound: `COc1cc([C@@H]2c3cc4c(cc3[C@@H](Nc3ccc(Cl)cc3)[C@H]3COC(=O)[C@H]23)OCO4)cc(OC)c1O` ; wanted: its ID50
[reply] 50

###

target: DNA topoisomerase 2-alpha (Homo sapiens); experiment: Inhibition of human DNA topoisomerase 2
experimental.readout: ID50
Number first, unit second: that is the form wanted.

smiles	observed.result
COC1=CC([C@@H]2c3cc4c(cc3[C@@H](Nc3cccc([N+](=O)[O-])c3)[C@H]3COC(=O)[C@@H]32)OCO4)=CC(=O)C1=O	50 µM
COC1=CC([C@@H]2c3cc4c(cc3[C@@H](Nc3cccc(Br)c3)[C@H]3COC(=O)[C@@H]32)OCO4)=CC(=O)C1=O	50 µM
CCOC(=O)c1ccc(N[C@@H]2c3cc4c(cc3[C@@H](C3=CC(=O)C(=O)C(OC)=C3)[C@H]3C(=O)OC[C@@H]32)OCO4)cc1	25 µM
COC1=CC([C@@H]2c3cc4c(cc3[C@@H](Nc3ccc([N+](=O)[O-])cc3)[C@H]3COC(=O)[C@@H]32)OCO4)=CC(=O)C1=O	10 µM

Next, consider the following molecule.
[ask] # input molecule: `COc1cc([C@@H]2c3cc4c(cc3[C@@H](Nc3ccccc3)[C@H]3COC(=O)[C@H]23)OCO4)cc(OC)c1O` ; wanted: its ID50
[reply] 25 µM

###

Reported Activity values follow for various compounds
biological target: UniProt P11388; assay: Inhibition of strand rejoining activity of human DNA topoisomerase 2 assessed as protein-DNA complex formation at 20 uM by cell-based assay; design: scale not given: the % may be the effect or the level left
Kindly provide the numeric value in % only, without the unit symbol.

See these solved cases before continuing.
smiles	Activity [%]
COc1cc([C@@H]2c3cc4c(cc3[C@@H](Nc3ccc(F)cc3)[C@H]3COC(=O)[C@H]23)OCO4)cc(O)c1O	117
COc1cc([C@@H]2c3cc4c(cc3[C@H](O)[C@H]3COC(=O)[C@H]23)OCO4)cc(O)c1O	8
COc1cc([C@@H]2c3cc4c(cc3[C@@H](Nc3ccc(C(C)=O)cc3)[C@H]3COC(=O)[C@H]23)OCO4)cc(O)c1O	147

Next, consider the following compound.
[ask] Give UniProt P11388 Activity for `COc1cc([C@@H]2c3cc4c(cc3[C@@H](Nc3ccc(C#N)cc3)[C@H]3COC(=O)[C@H]23)OCO4)cc(O)c1O`
[reply] 146

###

biological target: DNA topoisomerase 2-alpha (Homo sapiens); test: Inhibition of strand rejoining activity of human DNA topoisomerase 2 assessed as protein-DNA complex formation at 10 uM by cell-based assay; parameters: scale not given: the % may be the effect or the level left
experimental.readout: Activity (%)
Kindly provide the numeric value in % only, without the unit symbol.

See these solved cases before continuing.
compound	experimental.readout	endpoint.unit	observed.result
COc1cc([C@@H]2c3cc4c(cc3[C@@H](Nc3cccc(F)c3)[C@H]3COC(=O)[C@H]23)OCO4)cc(OC)c1O	Activity	%	158
COc1cc([C@@H]2c3cc4c(cc3[C@@H](Nc3ccccc3)[C@H]3COC(=O)[C@H]23)OCO4)cc(OC)c1O	Activity	%	243
COc1cc([C@@H]2c3cc4c(cc3[C@@H](Nc3ccc(C#N)cc3)[C@H]3COC(=O)[C@H]23)OCO4)cc(OC)c1O	Activity	%	211

[ask] # input compound: COc1cc([C@@H]2c3cc4c(cc3[C@@H](O[C@@H]3O[C@@H]5CO[C@@H](C)O[C@H]5[C@H](O)[C@H]3O)[C@H]3COC(=O)[C@H]23)OCO4)cc(OC)c1O [ETOPOSIDE] ; wanted: its Activity
[reply] 100

[ask] # input compound: `COc1cc([C@@H]2c3cc4c(cc3[C@@H](Nc3ccc(Cl)cc3)[C@H]3COC(=O)[C@H]23)OCO4)cc(OC)c1O` ; wanted: its Activity
[reply] 99
